# assayed_system: T1, Human IL2Rγ extracellular domain expressed with a C-terminal myc-myc-hexahistidine tag (human)
# T1 construct: also called hIL-2Rg-MMH; hIL-2RG-MMH
# T1 chain: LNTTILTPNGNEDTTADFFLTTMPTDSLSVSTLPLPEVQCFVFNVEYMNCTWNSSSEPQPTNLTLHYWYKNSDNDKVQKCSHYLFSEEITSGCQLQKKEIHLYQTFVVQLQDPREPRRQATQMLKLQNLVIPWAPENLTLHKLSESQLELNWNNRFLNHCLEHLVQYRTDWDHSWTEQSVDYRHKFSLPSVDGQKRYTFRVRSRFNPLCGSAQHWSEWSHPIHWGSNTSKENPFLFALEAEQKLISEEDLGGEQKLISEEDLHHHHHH
# measurement_notes: SPR, captured mAb, 25C, dissociation pH 7.4
Catalogue of binders with associated t1/2
Numbers only here, please. The scale is h.

Record H4H12871P (antibody, human IgG4 S228P, kappa, V domains shown, anti-IL2Rgamma mAb expressed with human IgG4 Fc; also called REGN9434) VH: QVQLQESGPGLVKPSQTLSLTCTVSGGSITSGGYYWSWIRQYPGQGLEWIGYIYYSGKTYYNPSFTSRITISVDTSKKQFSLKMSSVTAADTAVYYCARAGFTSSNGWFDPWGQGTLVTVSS VL: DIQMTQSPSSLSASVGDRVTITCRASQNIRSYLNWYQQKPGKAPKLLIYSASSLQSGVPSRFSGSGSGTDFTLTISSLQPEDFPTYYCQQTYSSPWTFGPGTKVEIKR . Reported t1/2: 0.317

Record H4H12863P (antibody, human IgG4 S228P, kappa, V domains shown, anti-IL2Rgamma mAb expressed with human IgG4 Fc) VH: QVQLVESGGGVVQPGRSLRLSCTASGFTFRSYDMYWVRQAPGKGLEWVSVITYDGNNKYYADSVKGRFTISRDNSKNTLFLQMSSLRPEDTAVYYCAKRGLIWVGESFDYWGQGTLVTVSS VL: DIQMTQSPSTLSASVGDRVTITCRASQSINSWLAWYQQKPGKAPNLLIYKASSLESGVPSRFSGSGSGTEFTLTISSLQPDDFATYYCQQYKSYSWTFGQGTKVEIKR . Reported t1/2: 1.12

Record H4H12858P (antibody, human IgG4 S228P, kappa, V domains shown, anti-IL2Rgamma mAb expressed with human IgG4 Fc; also called REGN9433) VH: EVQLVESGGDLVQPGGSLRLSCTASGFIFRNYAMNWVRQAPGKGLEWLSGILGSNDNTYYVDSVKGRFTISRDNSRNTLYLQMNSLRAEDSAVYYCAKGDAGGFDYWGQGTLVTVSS VL: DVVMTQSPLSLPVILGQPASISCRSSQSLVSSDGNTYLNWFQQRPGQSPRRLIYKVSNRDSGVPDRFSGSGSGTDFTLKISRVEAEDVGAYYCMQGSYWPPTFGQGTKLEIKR . Reported t1/2: 1.05
